Answer each item with its documented pKd.
Biological target: T1, RBM45 RRM3 (Homo sapiens, UniProt Q8IUH3 370-476)
T1 sequence: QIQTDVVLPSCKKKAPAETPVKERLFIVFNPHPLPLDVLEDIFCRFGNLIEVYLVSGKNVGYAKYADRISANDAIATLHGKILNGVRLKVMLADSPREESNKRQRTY
Assay: fluorescence polarization; FP: 100 nM FAM-RNA/ssDNA, 10 mM Tris-HCl pH 7.5, 200 mM NaCl, 1 mM DTT, 1 mM EDTA, 5% glycerol, 25 °C, 30 min
Details: protein: recombinant; tags: C-terminal His-tag; label: 5'-FAM
One number for each entry, as −log10 of the molar value.

{"binder": "GGACGU (ssRNA)", "pKd": 5.92}
{"binder": "CGACGG (ssRNA)", "pKd": 5.70}
{"binder": "GGCCGG (ssRNA)", "pKd": 4.15}
{"binder": "GUACGG (ssRNA)", "pKd": 5.03}
{"binder": "GGGCGG (ssRNA)", "pKd": 4.23}

# per-item lookup of pKd; items listed below
1. GAACGG (ssRNA)
2. GGACGC (ssRNA)
3. GGACUG (ssRNA)
4. GGACGG (ssRNA) [GGACGG RNA]

stdout:
1. 4.99
2. 5.97
3. 4.81
4. 5.63
